Target Desc: UniProtKB Q16539
Assay Overview: Inhibition of p38 Kinase Activity
IC50 values by entry

| Compound | IC50 |
| --- | --- |
| CC1(C)[C@H]2CC[C@@H](CNc3nc(N4CCCNCC4)nc(N4CCc5ccc([N+](=O)[O-])cc54)n3)[C@@H]1C2 | < 1000 nM |
| COCCNC(=O)c1ccc(C)c(Nc2nc(N[C@H]3CCNC3)nc(N(C)CC(C)(C)C)n2)c1 | < 1000 nM |
| COCCN1CCC(Nc2nc(Nc3cc(C(N)=O)ccc3C)nc(N(C)CC(C)C)n2)C1 (centres undefined) | < 1000 nM |
| CC1(C)C2CCC(CNc3nc(Nc4ccc5[nH]nnc5c4)nc(N4CCNCC4)n3)C1C2 (centres undefined) | < 10000 nM |

---

Target Desc: MAPK14;MAPK11;MAPK12 (human)
Assay Overview: Inhibition of p38 Kinase Activity
Recorded IC50 for the following compounds

| Compound | IC50 |
| --- | --- |
| CCOC(=O)N1CCN(c2nc(NC[C@@H]3CC[C@H]4C[C@@H]3C4(C)C)nc(Nc3ccc4ncsc4c3)n2)CC1 | < 10 µM |
| CCNC(=O)N1CC2CC1CN2c1nc(NCC(C)c2ccccc2)nc(Nc2ccc3ncsc3c2)n1 (stereo not drawn) | < 10 µM |
| Cc1ccc(-c2nn(C)c(=O)[nH]2)cc1Nc1nc(N[C@@H]2CCNC2)nc(N(C)CC(C)(C)C)n1 | < 1 µM |

---

Target Desc: MAPK14;MAPK11;MAPK12 (human) (UniProt Q16539)
Assay Overview: Inhibition of p38 Kinase Activity
pIC50: −log10 of the molar value.
Catalogue of pIC50 readings, one per entry.
Assay Endpoint: pIC50

| Compound | Target Desc | Assay Endpoint | Result |
| --- | --- | --- | --- |
| Cc1ccc(C(N)=O)cc1Nc1nc(NCC(C)c2ccccc2)nc(N[C@H]2CCNC2)n1 (some centres undefined) | MAPK14;MAPK11;MAPK12 (human) (UniProt Q16539) | pIC50 | > 6.00 |
| Cc1ccc(C(N)=O)cc1Nc1nc(N[C@H]2CCN(Cc3cccc(F)c3)C2)nc(N(C)CC(C)C)n1 | MAPK14;MAPK11;MAPK12 (human) (UniProt Q16539) | pIC50 | > 6.00 |
| CONC(=O)c1ccc(C)c(Sc2nc(N(C)CC(C)(C)C)nc(N3CCCN(C)CC3)n2)c1 | MAPK14;MAPK11;MAPK12 (human) (UniProt Q16539) | pIC50 | > 4.52 |
| Cc1ccc(C(N)=O)cc1Nc1nc(NC2CCN(C)C2)nc(N(C)CC(C)C)n1 (centres undefined) | MAPK14;MAPK11;MAPK12 (human) (UniProt Q16539) | pIC50 | > 6.00 |

---

Target Desc: MAPK14;MAPK11;MAPK12 (human) (UniProt Q16539)
Assay Overview: Inhibition of p38 Kinase Activity
pIC50: −log10 of the molar value.
Assay Endpoint: pIC50

| Molecule | Result |
| --- | --- |
| CNc1nc(NCC(C)c2ccccc2)nc(Nc2ccc3ncsc3c2)n1 (stereo unspecified) | > 5.00 |
| Cc1ccc(C(N)=O)cc1Nc1nc(N[C@H]2CCCC[C@H]2NC(=O)CC(C)C)nc(N(C)CC(C)C)n1 | > 6.00 |
| CC(=O)N1CCN(c2nc(NC[C@@H]3CC[C@H]4C[C@@H]3C4(C)C)nc(Nc3ccc4ncsc4c3)n2)CC1 | > 5.00 |
| Cc1ccc(C(N)=O)cc1Nc1nc(NC2CCc3ccccc32)nc(N[C@@H]2CCNC2)n1 (stereo partly specified) | > 6.00 |
| Clc1nc(Nc2ccc3ncsc3c2)nc(N2CCCC(c3ccccc3)C2)n1 (stereo unspecified) | > 5.00 |
| CC(=O)Nc1ccc(C)c(Nc2nc(N[C@H]3CCNC3)nc(N(C)CC(C)(C)C)n2)c1 | > 6.00 |

---

Target Desc: MAPK14;MAPK11;MAPK12 (human)
Assay Overview: Inhibition of p38 Kinase Activity
Assay Endpoint: IC50

| Compound | Result |
| --- | --- |
| CNC(=O)c1ccc(C)c(Nc2nc(N[C@H]3CCNC3)nc(N(C)CC3CCCC3)n2)c1 | < 1000 nM |
| CC(CN(C)c1nc(Nc2ccc3ncsc3c2)nc(N2CCNCC2)n1)c1ccccc1 (stereo not given) | < 10000 nM |
| Cc1ccc(C(N)=O)cc1Nc1nc(NC[C@@H]2CC[C@H]3C[C@H]2C3(C)C)nc(N[C@H]2CCNC2)n1 | < 1000 nM |
| CC(Cc1ccccc1)Nc1nc(Nc2ccc3ncsc3c2)nc(N2CCNCC2)n1 (stereo not given) | < 10000 nM |
| Cc1ccc(C(N)=O)cc1Nc1nc(NCC2CCNCC2)nc(NC(C)C2CCCCC2)n1 (stereo not given) | < 1000 nM |
| Cc1ccc(C(N)=O)cc1Nc1nc(NCC(C)c2ccc(Cl)cc2)nc(N[C@H]2CCNC2)n1 (stereo not given in full) | < 1000 nM |
| CC1(C)[C@@H]2CC[C@@H](CNc3nc(Nc4cc(C(N)=O)ccc4Cl)nc(NC4CCNC4)n3)[C@H]1C2 (stereo not given in full) | < 1000 nM |
| CCONC(=O)c1ccc(C)c(Nc2cc(N3CCCN(C)CC3)nc(N(C)CC(C)(C)C)n2)c1 | < 1000 nM |
| Cc1ccc(C(N)=O)cc1Nc1nc(NCC23CC4CC(CC(C4)C2)C3)nc(N[C@H]2CCNC2)n1 | < 1000 nM |
| Cc1ccc(C(N)=O)cc1Nc1nc(N[C@H]2CCN(c3ccccc3)C2)nc(N(C)CC(C)(C)C)n1 | < 1000 nM |
| CC(=O)N1CC2CC1CN2c1nc(NCC(C)c2ccccc2)nc(Nc2ccc3ncsc3c2)n1 (stereo not given) | < 10000 nM |
| CCOCNc1nc(NCC(C)c2ccccc2)nc(Nc2ccc3ncsc3c2)n1 (stereo not given) | < 10000 nM |
| Cc1ccc(C(N)=O)cc1Nc1nc(NCC2CCCCC2)nc(N[C@@H]2CCNC2)n1 | < 1000 nM |
| CCCCNC(=O)c1ccc(C)c(Nc2nc(N[C@H]3CCNC3)nc(N(C)CC(C)(C)C)n2)c1 | < 1000 nM |
| CCc1ccc(C(N)=O)cc1Nc1nc(NCC(C)(C)C)nc(N[C@H]2CCNC2)n1 | < 1000 nM |

---

Target Desc: MAPK14;MAPK11;MAPK12 (human) (UniProt Q16539)
Assay Overview: Inhibition of p38 Kinase Activity
pIC50: −log10 of the molar value.
pIC50 values for the compounds below.

| Compound | Target Desc | pIC50 |
| --- | --- | --- |
| CC(CNc1cc(N2CCOCC2)nc(Nc2ccc3ncccc3c2)n1)c1ccccc1 (stereo not drawn) | MAPK14;MAPK11;MAPK12 (human) (UniProt Q16539) | > 5.00 |
| CCNC(=O)N1CCN(c2nc(NC[C@@H]3CC[C@H]4C[C@@H]3C4(C)C)nc(Nc3ccc4ncsc4c3)n2)CC1 | MAPK14;MAPK11;MAPK12 (human) (UniProt Q16539) | > 5.00 |
| CNC(=O)c1ccc(C)c(Oc2nc(N[C@@H]3CCNC3)nc(N(C)CC(C)(C)C)n2)c1 | MAPK14;MAPK11;MAPK12 (human) (UniProt Q16539) | > 4.52 |

---

Target Desc: MAPK14;MAPK11;MAPK12 (human)
Assay Overview: Inhibition of p38 Kinase Activity
pIC50: −log10 of the molar value.

| Molecule | pIC50 |
| --- | --- |
| Cc1ccc(C(N)=O)cc1Nc1nc(O)nc(N[C@H]2CCNC2)n1 | > 6.00 |
| Cc1ccc2ncn(-c3nc(F)cc(NCCOC(C)C)n3)c2c1 | > 5.00 |
| CC(C)c1nc(Cl)nc(Nc2ccc3ncsc3c2)n1 | > 5.00 |
| NC(=O)CNc1nc(NCCc2ccccc2)nc(Nc2ccc3ncsc3c2)n1 | > 5.00 |
| CC(CNc1nc(Nc2ccc3ncsc3c2)nc(N2CCN(C(=O)c3ccco3)CC2)n1)c1ccccc1 (stereo not given) | > 5.00 |
| Cc1ccc(-c2ncc[nH]2)cc1Nc1nc(N[C@@H]2CCNC2)nc(N(C)CC(C)(C)C)n1 | > 6.00 |
| CCCCN(C)c1nc(Nc2cc(C(N)=O)ccc2C)nc(N[C@H]2CCNC2)n1 | > 6.00 |
| CC(CNc1nc(Nc2ccc3ncsc3c2)nc(N(C)CCCN(C)C(=O)c2cccnc2)n1)c1ccccc1 (stereo not given) | > 5.00 |
| CC(CNc1nc(Nc2ccc3ncsc3c2)nc(N2CCN(C(=S)NC3CCCCC3)CC2)n1)c1ccccc1 (stereo not given) | > 5.00 |
| COCCC(=O)N1CC[C@@H](Nc2nc(Nc3cc(C(N)=O)ccc3C)nc(N(C)CC(C)C)n2)C1 | > 6.00 |
